# System: RNA-binding protein pos-1 (Caenorhabditis elegans, UniProt G5EF15)
# Sequence (G5EF15 whole entry): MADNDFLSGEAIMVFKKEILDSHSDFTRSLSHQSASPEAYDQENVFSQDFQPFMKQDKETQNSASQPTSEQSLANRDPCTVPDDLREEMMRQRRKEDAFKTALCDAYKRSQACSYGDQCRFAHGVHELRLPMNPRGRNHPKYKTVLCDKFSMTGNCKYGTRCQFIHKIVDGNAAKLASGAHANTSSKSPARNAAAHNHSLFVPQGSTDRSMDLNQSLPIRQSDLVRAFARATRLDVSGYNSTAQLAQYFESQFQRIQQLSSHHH
# Assay explanation: inhibitors of POS-1/mex-3 RNA binding, dose response, biochemical, fluorescence polarization (AID 1964);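 note: purified POS-1 fused to maltose binding protein made in E. coli; potency of compounds blocking POS-1 binding to fluorescent RNA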
Calls of active or inactive are those of the source. Cut-off read from the data, not from the text of the source: actives have a measured EC50 and inactives only a lower limit.
EC50: recorded values

# example entries with known answers
Compound	EC50
O=C1/C(=C/c2ccc(O)c(O)c2)SC(=S)N1Nc1ccccc1	39.2 µM (active)
CC(=O)Nc1ccc(N/C=C/C(=O)c2ccc(C)o2)cc1	> 300 µM (not active)
O=C(c1ccc(Br)s1)N1CCN(c2ccccn2)CC1	> 300 µM (not active)
CC(C)OC(=O)C(C#N)c1nc2ccccc2nc1N1CCCC1 (stereo unspecified)	> 300 µM (not active)
CC1=C(C#N)C(=O)NC(=O)/C1=C/c1ccc(-c2ccc(S(N)(=O)=O)cc2)o1	> 300 µM (inconclusive)

Any idea what its EC50 is? The compound is Cc1ccccc1OCC(=O)Nc1ccc2c(c1)C(=O)c1ccccc1C2=O
36.1 µM (active)
